This collection of values is drawn from the RNAGym collection of RNA variant scans (doi:10.1021/acssynbio.7b00057).

aptazyme ON/OFF ratio reference
B1: Pistol ribozyme (parent)
chain: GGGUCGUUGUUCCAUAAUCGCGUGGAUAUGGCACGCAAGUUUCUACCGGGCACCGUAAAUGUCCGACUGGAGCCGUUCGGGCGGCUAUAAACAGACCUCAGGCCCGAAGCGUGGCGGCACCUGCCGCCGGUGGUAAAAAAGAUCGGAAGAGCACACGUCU

# Variants of: B1
# assay-overview: aptazyme ON/OFF ratio, guanine; higher = stronger switching; co-transcriptional cleavage with and without guanine

>  <variant-identifier>
U7G U8C G9U U10C U11A C12U

>  <aptazyme ON/OFF ratio>
2.96

$$$$
>  <variant-identifier>
U7G U8C G9C U10C U11A C12U C13U

>  <aptazyme ON/OFF ratio>
1.05

$$$$
>  <variant-identifier>
U8C G9U U10A U11A C13G

>  <aptazyme ON/OFF ratio>
1.07

$$$$
>  <variant-identifier>
U8A U11A C13A

>  <aptazyme ON/OFF ratio>
1.19

$$$$
>  <variant-identifier>
U7G U8G G9A U10A C12U

>  <aptazyme ON/OFF ratio>
1.52

$$$$
>  <variant-identifier>
G9C U10A C13U

>  <aptazyme ON/OFF ratio>
1.3

$$$$
>  <variant-identifier>
U8G G9C U11G C12G

>  <aptazyme ON/OFF ratio>
1.15

$$$$
>  <variant-identifier>
U7A U8C U10G C12G C13G

>  <aptazyme ON/OFF ratio>
1.11

$$$$
>  <variant-identifier>
U8C G9A C12A

>  <aptazyme ON/OFF ratio>
1.35

$$$$
>  <variant-identifier>
U7C G9A U10A U11G C12A C13A

>  <aptazyme ON/OFF ratio>
1.08

$$$$
>  <variant-identifier>
U8A G9C U10C U11G C13A

>  <aptazyme ON/OFF ratio>
1.08

$$$$
>  <variant-identifier>
U7G U8G G9U U10C U11G C12G

>  <aptazyme ON/OFF ratio>
1.39

$$$$
>  <variant-identifier>
G9C U11G C12U C13G

>  <aptazyme ON/OFF ratio>
1.25

$$$$
>  <variant-identifier>
U7G U10C U11C C13G

>  <aptazyme ON/OFF ratio>
1.01

$$$$
>  <variant-identifier>
U8A G9C U10A U11A C13A

>  <aptazyme ON/OFF ratio>
1.16

$$$$
>  <variant-identifier>
U7G U8C G9C U11C C12A C13U

>  <aptazyme ON/OFF ratio>
1.53

$$$$
>  <variant-identifier>
U8C G9A U10G U11G C12A C13A

>  <aptazyme ON/OFF ratio>
1.15

$$$$
>  <variant-identifier>
U8G G9A U10G U11G C12A C13U

>  <aptazyme ON/OFF ratio>
1.41

$$$$
>  <variant-identifier>
G9C U10G U11C C12A

>  <aptazyme ON/OFF ratio>
1.37

$$$$
>  <variant-identifier>
U7C U8C G9A U10A U11G C12U C13G

>  <aptazyme ON/OFF ratio>
1.21

$$$$
>  <variant-identifier>
U8C G9A U11C C12U C13U

>  <aptazyme ON/OFF ratio>
1.22

$$$$
>  <variant-identifier>
U7C G9U U10G U11A C12G C13A

>  <aptazyme ON/OFF ratio>
1.11

$$$$
